Biological target: wildtype Taspase 1 (Homo sapiens)
Sequence (Q9H6P5 1-233 limits assumed): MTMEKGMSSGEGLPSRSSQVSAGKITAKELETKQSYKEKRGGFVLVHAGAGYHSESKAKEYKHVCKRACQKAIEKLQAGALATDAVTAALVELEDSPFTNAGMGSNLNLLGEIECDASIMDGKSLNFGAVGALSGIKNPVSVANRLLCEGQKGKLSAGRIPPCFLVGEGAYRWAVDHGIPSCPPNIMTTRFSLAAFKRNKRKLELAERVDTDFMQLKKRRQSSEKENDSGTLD
Sequence (Q9H6P5 234-420 limits assumed): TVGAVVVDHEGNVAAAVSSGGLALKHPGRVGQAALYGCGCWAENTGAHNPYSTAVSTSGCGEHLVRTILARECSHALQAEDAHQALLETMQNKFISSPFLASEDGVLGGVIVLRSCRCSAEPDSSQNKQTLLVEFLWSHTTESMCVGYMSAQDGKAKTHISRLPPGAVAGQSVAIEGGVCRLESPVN
Experiment: Recombinant cleavage assay with GST-MLL2700–2850-GFP-His substrate
Type: biochemical
Settings: Z isomer; ligand conc. 10 - 100 µM; 200 nM Taspase 1, 5 µM substrate; n = 3; read-out: IC50 TW (recombinant cleavage, full-length protein)
measurement.label: pIC50
Formally, pIC50 is defined as -log10 of the concentration c, with c in mol/L.

# smiles.text, measurement.label, reading
rows = [
    ("Cc1nn(-c2ccc(-c3cn(CCOP(=O)(O)Oc4c5c(c(OP(=O)(O)O)c6c4C4CC6c6cc7c(cc64)C4CC7c6ccccc64)C4CC5c5cc6c(cc54)C4CC6c5ccccc54)nn3)cc2)c(C)c1N=Nc1ccc(-c2ccc(-c3cn(CCOP(=O)(O)Oc4c5c(c(OP(=O)(O)O)c6c4C4CC6c6cc7c(cc64)C4CC7c6ccccc64)C4CC5c5cc6c(cc54)C4CC6c5ccccc54)nn3)cc2)cc1", "pIC50", 4.38),
    ("Cc1nn(-c2ccc(C#Cc3ccc(-c4cn(CCOP(=O)(O)Oc5c6c(c(OP(=O)(O)O)c7c5C5CC7c7cc8c(cc75)C5CC8c7ccccc75)C5CC6c6cc7c(cc65)C5CC7c6ccccc65)nn4)cc3)cc2)c(C)c1N=Nc1ccc(C#Cc2ccc(-c3cn(CCOP(=O)(O)Oc4c5c(c(OP(=O)(O)O)c6c4C4CC6c6cc7c(cc64)C4CC7c6ccccc64)C4CC5c5cc6c(cc54)C4CC6c5ccccc54)nn3)cc2)cc1", "pIC50", 4.42),
]

Alright, here's another molecule for you.
Field request: pIC50 | item: Cc1nn(Cc2cn(CCOP(=O)(O)Oc3c4c(c(OP(=O)(O)O)c5c3C3CC5c5cc6c(cc53)C3CC6c5ccccc53)C3CC4c4cc5c(cc43)C3CC5c4ccccc43)nn2)c(C)c1N=Nc1ccc(-c2cn(CCOP(=O)(O)Oc3c4c(c(OP(=O)(O)O)c5c3C3CC5c5cc6c(cc53)C3CC6c5ccccc53)C3CC4c4cc5c(cc43)C3CC5c4ccccc43)nn2)cc1
4.60

----------
Biological target: wildtype Taspase 1 (Homo sapiens, UniProt Q9H6P5)
Sequence (Q9H6P5 1-233 limits assumed): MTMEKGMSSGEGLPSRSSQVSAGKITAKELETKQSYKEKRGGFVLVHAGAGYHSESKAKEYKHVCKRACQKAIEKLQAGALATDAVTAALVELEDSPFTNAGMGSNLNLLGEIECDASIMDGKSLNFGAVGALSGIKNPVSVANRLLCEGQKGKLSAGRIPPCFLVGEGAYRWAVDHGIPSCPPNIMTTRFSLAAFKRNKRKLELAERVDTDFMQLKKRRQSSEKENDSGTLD
Sequence (Q9H6P5 234-420 limits assumed): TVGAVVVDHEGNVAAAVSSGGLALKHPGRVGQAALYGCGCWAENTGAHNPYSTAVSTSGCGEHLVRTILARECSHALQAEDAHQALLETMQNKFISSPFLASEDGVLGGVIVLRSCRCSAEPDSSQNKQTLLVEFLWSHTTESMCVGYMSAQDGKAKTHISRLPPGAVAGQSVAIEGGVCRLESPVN
Test: Recombinant cleavage assay with GST-MLL2700–2850-GFP-His substrate
Assay type: biochemical
Conditions: Z isomer; ligand conc. 10 - 100 µM; 200 nM Taspase 1, 5 µM substrate; n = 3; read-out: IC50 TW (recombinant cleavage, full-length protein)
We begin with a simple list: items and their reported pIC50.
Formally, pIC50 is defined as -log10 of the concentration c, with c in mol/L.

Sample answers from the record:
# compound, assay.system, pIC50
data = [
    ("O=P(O)(O)Oc1c2c(c(OP(=O)(O)OCCn3cc(-c4ccc(N=Nc5ccc(-c6cn(CCOP(=O)(O)Oc7c8c(c(OP(=O)(O)O)c9c7C7CC9c9cc%10c(cc97)C7CC%10c9ccccc97)C7CC8c8cc9c(cc87)C7CC9c8ccccc87)nn6)cc5)cc4)nn3)c3c1C1CC3c3cc4c(cc31)C1CC4c3ccccc31)C1CC2c2cc3c(cc21)C1CC3c2ccccc21 [TWAB1]", "wildtype Taspase 1 (Homo sapiens, UniProt Q9H6P5)", 4.75),
    ("O=P(O)(O)Oc1c2c(c(OP(=O)(O)OCCn3cc(COCc4ccc(N=Nc5ccc(COCc6cn(CCOP(=O)(O)Oc7c8c(c(OP(=O)(O)O)c9c7C7CC9c9cc%10c(cc97)C7CC%10c9ccccc97)C7CC8c8cc9c(cc87)C7CC9c8ccccc87)nn6)cc5)cc4)nn3)c3c1C1CC3c3cc4c(cc31)C1CC4c3ccccc31)C1CC2c2cc3c(cc21)C1CC3c2ccccc21 [TWAB2]", "wildtype Taspase 1 (Homo sapiens, UniProt Q9H6P5)", 4.60),
]

Alright, here's another compound for you.
Param readout = pIC50; param system = wildtype Taspase 1 (Homo sapiens, UniProt Q9H6P5); param query = Cc1nn(-c2ccc(-n3cc(CCOP(=O)(O)Oc4c5c(c(OP(=O)(O)O)c6c4C4CC6c6cc7c(cc64)C4CC7c6ccccc64)C4CC5c5cc6c(cc54)C4CC6c5ccccc54)nn3)cc2)c(C)c1N=Nc1ccc(-n2cc(CCOP(=O)(O)Oc3c4c(c(OP(=O)(O)O)c5c3C3CC5c5cc6c(cc53)C3CC6c5ccccc53)C3CC4c4cc5c(cc43)C3CC5c4ccccc43)nn2)cc1 [TWAAP0] ; response: value
4.35

----------
Experiment: Photoisomerization: photostationary states by 1H NMR, switching cycles by UV-vis
Type: physicochemical
Settings: UV 365 nm
We begin with a simple list: items and their reported PSS E→Z, photostationary state.
// note: answer is a bare numeric in %

# smiles.text, PSS E→Z, photostationary state, %
records = [
    ("Cc1nn(-c2ccc(C#Cc3ccc(-c4cn(CCOP(=O)(O)Oc5c6c(c(OP(=O)(O)O)c7c5C5CC7c7cc8c(cc75)C5CC8c7ccccc75)C5CC6c6cc7c(cc65)C5CC7c6ccccc65)nn4)cc3)cc2)c(C)c1N=Nc1ccc(C#Cc2ccc(-c3cn(CCOP(=O)(O)Oc4c5c(c(OP(=O)(O)O)c6c4C4CC6c6cc7c(cc64)C4CC7c6ccccc64)C4CC5c5cc6c(cc54)C4CC6c5ccccc54)nn3)cc2)cc1", 67),
]

Field request: PSS E→Z, photostationary state | item: Cc1nn(Cc2cn(CCOP(=O)(O)Oc3c4c(c(OP(=O)(O)O)c5c3C3CC5c5cc6c(cc53)C3CC6c5ccccc53)C3CC4c4cc5c(cc43)C3CC5c4ccccc43)nn2)c(C)c1N=Nc1ccc(-c2cn(CCOP(=O)(O)Oc3c4c(c(OP(=O)(O)O)c5c3C3CC5c5cc6c(cc53)C3CC6c5ccccc53)C3CC4c4cc5c(cc43)C3CC5c4ccccc43)nn2)cc1
94

----------
Molecular target: full-length, proteolytically inactive Taspase 1 (Homo sapiens, UniProt Q9H6P5, D233A/T234A)
Sequence (Q9H6P5 1-420 D233A/T234A): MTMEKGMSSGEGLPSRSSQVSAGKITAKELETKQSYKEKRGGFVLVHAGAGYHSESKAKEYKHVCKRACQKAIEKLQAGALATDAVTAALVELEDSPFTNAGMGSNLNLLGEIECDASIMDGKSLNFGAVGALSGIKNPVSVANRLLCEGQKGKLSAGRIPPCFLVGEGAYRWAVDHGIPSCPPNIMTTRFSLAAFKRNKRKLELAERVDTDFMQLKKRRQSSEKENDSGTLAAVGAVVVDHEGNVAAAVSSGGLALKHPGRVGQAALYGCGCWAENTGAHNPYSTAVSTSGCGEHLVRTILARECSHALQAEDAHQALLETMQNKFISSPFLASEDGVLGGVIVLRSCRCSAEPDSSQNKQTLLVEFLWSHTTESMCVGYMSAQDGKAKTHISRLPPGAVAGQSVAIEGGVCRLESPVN
Experiment: Surface plasmon resonance on immobilized full-length, inactive Taspase 1
Format: binding
Conditions: Z enriched isomer; Table S2; read-out: KD (Z)
We label by threshold. Values of Kd strictly beneath 4000 nM are rule met. Values of 4000 nM and up are rule not met.

# compound, assigned.category
records = [
    ("Cc1nn(Cc2cn(CCOP(=O)(O)Oc3c4c(c(OP(=O)(O)O)c5c3C3CC5c5cc6c(cc53)C3CC6c5ccccc53)C3CC4c4cc5c(cc43)C3CC5c4ccccc43)nn2)c(C)c1N=Nc1ccc(-c2cn(CCOP(=O)(O)Oc3c4c(c(OP(=O)(O)O)c5c3C3CC5c5cc6c(cc53)C3CC6c5ccccc53)C3CC4c4cc5c(cc43)C3CC5c4ccccc43)nn2)cc1 [TWAAP2]", "rule not met"),
    ("Cc1nn(-c2ccc(C#Cc3ccc(-c4cn(CCOP(=O)(O)Oc5c6c(c(OP(=O)(O)O)c7c5C5CC7c7cc8c(cc75)C5CC8c7ccccc75)C5CC6c6cc7c(cc65)C5CC7c6ccccc65)nn4)cc3)cc2)c(C)c1N=Nc1ccc(C#Cc2ccc(-c3cn(CCOP(=O)(O)Oc4c5c(c(OP(=O)(O)O)c6c4C4CC6c6cc7c(cc64)C4CC7c6ccccc64)C4CC5c5cc6c(cc54)C4CC6c5ccccc54)nn3)cc2)cc1 [TWAAP4]", "rule met"),
    ("Cc1nn(-c2ccc(-n3cc(CCOP(=O)(O)Oc4c5c(c(OP(=O)(O)O)c6c4C4CC6c6cc7c(cc64)C4CC7c6ccccc64)C4CC5c5cc6c(cc54)C4CC6c5ccccc54)nn3)cc2)c(C)c1N=Nc1ccc(-n2cc(CCOP(=O)(O)Oc3c4c(c(OP(=O)(O)O)c5c3C3CC5c5cc6c(cc53)C3CC6c5ccccc53)C3CC4c4cc5c(cc43)C3CC5c4ccccc43)nn2)cc1 [TWAAP0]", "rule met"),
    ("Cc1nn(-c2ccc(-c3cn(CCOP(=O)(O)Oc4c5c(c(OP(=O)(O)O)c6c4C4CC6c6cc7c(cc64)C4CC7c6ccccc64)C4CC5c5cc6c(cc54)C4CC6c5ccccc54)nn3)cc2)c(C)c1N=Nc1ccc(-c2ccc(-c3cn(CCOP(=O)(O)Oc4c5c(c(OP(=O)(O)O)c6c4C4CC6c6cc7c(cc64)C4CC7c6ccccc64)C4CC5c5cc6c(cc54)C4CC6c5ccccc54)nn3)cc2)cc1 [TWAAP3]", "rule met"),
]

Turning to the following compound.
Regarding O=P(O)(O)Oc1c2c(c(OP(=O)(O)OCCn3cc(-c4ccc(N=Nc5ccc(-c6cn(CCOP(=O)(O)Oc7c8c(c(OP(=O)(O)O)c9c7C7CC9c9cc%10c(cc97)C7CC%10c9ccccc97)C7CC8c8cc9c(cc87)C7CC9c8ccccc87)nn6)cc5)cc4)nn3)c3c1C1CC3c3cc4c(cc31)C1CC4c3ccccc31)C1CC2c2cc3c(cc21)C1CC3c2ccccc21 [TWAB1] , kindly confirm whether its Kd is beneath 4000 nM.
rule not met
